Record form. Attribute: Plant response rating, Bluegrass. Fill in for each entry.
System: annual bluegrass (Poa annua)
Assay: Test C pre-/postemergence plant response
Assay type: in vivo
Details: Preemergence, 8 g ai/ha; scale 0 to 100 (0 no effect, 100 complete control)
Answer using only a numeral; do not append any unit.

Request: // returns reported Plant response rating, Bluegrass for input Cc1cc(-c2ccc(Cl)cc2)nn1-c1c(OS(=O)(=O)c2cccc3ccccc23)cnn(C)c1=O [Compound 47]
Response: 0

Request: // returns reported Plant response rating, Bluegrass for input Cc1cc(-c2ccc(Cl)cc2)nn1-c1c(OS(=O)(=O)c2ccc(Cl)s2)cnn(C)c1=O [Compound 55]
Response: 0

Request: // returns reported Plant response rating, Bluegrass for input CCOC(=O)Oc1cnn(C)c(=O)c1-n1nc(-c2ccc(Cl)cc2)cc1C [Compound 53]
Response: 0

Request: // returns reported Plant response rating, Bluegrass for input Cc1cc(-c2ccc(Cl)cc2)nn1-c1c(OC(=O)c2cccs2)cnn(C)c1=O [Compound 52]
Response: 0
